experiment: RP-HPLC temperature profiling (hydrophobicity and self-association/dimerization parameter PA); type: physicochemical; settings: maximal retention time difference relative to control peptide C within 5-80° C.
Square brackets hold non-standard residues; d marks the D form. Ends that are not written are not given here.
Decide using PA (min) association parameter alone. Strictly below 4 min: true. Equal to or above 4 min: false.

Ac-KWKSFLKTFKSALKTVLHTALKAISS-NH2 [NLL]; false

Could you please tell me whether PA (min) association parameter recorded for Ac-KWKSFLKTFKSASKTVLHTALKAISS-NH2 [NSL] is less than 4 min?
true

Could you please tell me whether PA (min) association parameter recorded for NLD: V681 analog with D-Leu at position 13 (non-polar face) (KWKSFLKTFKSA[dL]KTVLHTALKAISS-NH2; not fully specified) is less than 4 min?
true

Could you please tell me whether PA (min) association parameter recorded for PKL: V681 analog with L-Lys at position 11 (polar face) (KWKSFLKTFKKAVKTVLHTALKAISS) is less than 4 min?
true

Could you please tell me whether PA (min) association parameter recorded for PLL: V681 analog with L-Leu at position 11 (polar face) (KWKSFLKTFKLAVKTVLHTALKAISS) is less than 4 min?
false

Could you please tell me whether PA (min) association parameter recorded for Ac-KWKSFLKTFKSAGKTVLHTALKAISS-NH2 [NG] is less than 4 min?
true

Could you please tell me whether PA (min) association parameter recorded for PAL: V681 analog with L-Ala at position 11 (polar face) (KWKSFLKTFKAAVKTVLHTALKAISS) is less than 4 min?
false

Each recorded value in this set is attributed to patent US8252737B2.
